Record: compiled Ki on C-X-C chemokine receptor type 1 (Homo sapiens) from multiple reports.
Sequence (P25024 whole entry): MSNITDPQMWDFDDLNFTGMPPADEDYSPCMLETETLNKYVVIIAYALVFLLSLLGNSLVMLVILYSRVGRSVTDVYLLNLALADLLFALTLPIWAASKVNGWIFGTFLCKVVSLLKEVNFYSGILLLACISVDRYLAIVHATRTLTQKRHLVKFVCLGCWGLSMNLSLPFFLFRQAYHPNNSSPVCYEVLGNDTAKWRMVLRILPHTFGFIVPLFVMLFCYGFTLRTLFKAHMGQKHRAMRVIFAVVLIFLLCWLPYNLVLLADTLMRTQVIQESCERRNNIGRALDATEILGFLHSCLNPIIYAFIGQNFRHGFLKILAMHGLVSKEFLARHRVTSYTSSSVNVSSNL
fulfilled if Ki is below 200 nM. not fulfilled if not; exact matches included in not fulfilled.

# Compound, Measured target, Assigned label
data = [
    ("CC[C@@H](Nc1c(Nc2cc(Cl)cc(C(=O)N(C)C)c2O)c(=O)c1=O)c1cccs1", "C-X-C chemokine receptor type 1 (Homo sapiens)", "not fulfilled"),
    ("Cc1ccc([C@H](Nc2nsnc2Nc2cccc(C(=O)N(C)C)c2O)C(F)(F)F)o1", "C-X-C chemokine receptor type 1 (Homo sapiens)", "fulfilled"),
    ("CC(C)c1coc([C@H](Nc2c(Nc3cccc(C(=O)N(C)C)c3O)c(=O)c2=O)C(C)(C)C)c1", "C-X-C chemokine receptor type 1 (Homo sapiens)", "fulfilled"),
    ("CCC(C)(C)[C@@H](NC1=NS(=O)(=O)N=C1Nc1cccc(C(=O)N(C)C)c1O)c1ccco1", "C-X-C chemokine receptor type 1 (Homo sapiens)", "fulfilled"),
    ("CCN(Nc1c(Nc2cccc(C(=O)N(C)C)c2O)c(=O)c1=O)c1ccc(OC)cc1", "C-X-C chemokine receptor type 1 (Homo sapiens)", "not fulfilled"),
    ("CC[C@@H](Nc1c(Nc2c(C)ccc(C(=O)N(C)C)c2O)c(=O)c1=O)c1ccccc1", "C-X-C chemokine receptor type 1 (Homo sapiens)", "not fulfilled"),
    ("CN(C)C(=O)c1cccc(NC2=NS(=O)(=O)N=C2N[C@@H](c2ccc3c(c2)OCO3)C(C)(C)C)c1O", "C-X-C chemokine receptor type 1 (Homo sapiens)", "fulfilled"),
    ("CC[C@@H](Nc1c(Nc2cc(Br)cc(C(=O)N(C)C)c2O)c(=O)c1=O)c1cccs1", "C-X-C chemokine receptor type 1 (Homo sapiens)", "not fulfilled"),
    ("CC[C@@H](NC1=NS(=O)(=O)N=C1Nc1cccc(C(=O)N(C)C)c1O)c1ccccc1", "C-X-C chemokine receptor type 1 (Homo sapiens)", "not fulfilled"),
    ("CC[C@@H](Nc1c(Nc2cccc(C(=O)N(C)C)c2O)c(=O)c1=O)c1cc(C(C)(C)C)co1", "C-X-C chemokine receptor type 1 (Homo sapiens)", "fulfilled"),
    ("Cc1coc([C@H](Nc2c(Nc3cccc(C(=O)N(C)C)c3O)c(=O)c2=O)[C@H](C)F)c1", "C-X-C chemokine receptor type 1 (Homo sapiens)", "fulfilled"),
    ("CC[C@@H](Nc1c(Nc2cccc(C(=O)N(C)C)c2O)c(=O)c1=O)c1cccs1", "C-X-C chemokine receptor type 1 (Homo sapiens)", "not fulfilled"),
    ("CC[C@@H](Nc1c(Nc2cc(C#N)cc(C(=O)N(C)C)c2O)c(=O)c1=O)c1cccs1", "C-X-C chemokine receptor type 1 (Homo sapiens)", "fulfilled"),
    ("CC[C@@H](Nc1n[s+]([O-])nc1Nc1cccc(C(=O)N(C)C)c1O)c1ccc(C)o1 (stereo partly drawn)", "C-X-C chemokine receptor type 1 (Homo sapiens)", "not fulfilled"),
    ("CN(C)C(=O)c1cccc(NC2=NS(=O)(=O)N=C2N[C@@H](c2ccco2)C(C)(C)C)c1O", "C-X-C chemokine receptor type 1 (Homo sapiens)", "fulfilled"),
    ("CC[C@@H](Nc1c(Nc2cccc(C(=O)N(C)C)c2O)c(=O)c1=O)c1cc(CCCCN2CCOCC2)co1", "C-X-C chemokine receptor type 1 (Homo sapiens)", "fulfilled"),
    ("Cc1ccc([C@H](Nc2c(Nc3cccc(C(=O)N(C)C)c3O)c(=O)c2=O)[C@H](C)F)o1", "C-X-C chemokine receptor type 1 (Homo sapiens)", "fulfilled"),
    ("Cc1ccc([C@H](Nc2c(Nc3cccc(C(=O)N(C)C)c3O)c(=O)c2=O)C(F)(F)F)o1", "C-X-C chemokine receptor type 1 (Homo sapiens)", "fulfilled"),
]
